- PROCEDURE SUMMARY: photoluminescence quantum yield (fraction); solvent given as SMILES
- STATED CONDITIONS: in CCCCO
# binarize photoluminescence quantum yield: threshold 0.2 inclusive, high side class 1, low side class 0

- MOLECULE: "CN(C)c1ccc2c(c1)Cc1ccccc1-2"
  GROUP LABEL: "class 0"
- MOLECULE: "CN(C)c1ccc(/C=C/C=C2\\CC/C(=C\\c3ccc(N(C)C)cc3)C2=O)cc1"
  GROUP LABEL: "class 1"
- MOLECULE: "Cc1ccc(OCc2cc(=O)oc3c2ccc2ccccc23)cc1"
  GROUP LABEL: "class 0"
- MOLECULE: "CN(C)c1ccc(/C=C2\\CC/C(=C\\c3ccc(C#N)cc3)C2=O)cc1"
  GROUP LABEL: "class 0"
- MOLECULE: "CC1(C)[C@@H]2CC[C@]1(C)c1nc3cc(-c4cccs4)ccc3nc12"
  GROUP LABEL: "class 1"
- MOLECULE: "N#Cc1coc2ccccc2c1=O"
  GROUP LABEL: "class 0"
- MOLECULE: "Cn1cc(/C=C/C(=O)c2ccccc2)c2ccccc21"
  GROUP LABEL: "class 1"
- MOLECULE: "CCN(CC)c1ccc2c(C)cc(=O)oc2c1"
  GROUP LABEL: "class 1"
- MOLECULE: "CC(=O)Nc1ccc(O)cc1"
  GROUP LABEL: "class 0"
- MOLECULE: "O=C1c2ccc3c4ccc5c6c(ccc(c7ccc(c2c37)C(=O)N1c1ccncc1)c64)C(=O)N(c1ccncc1)C5=O"
  GROUP LABEL: "class 1"
- MOLECULE: "Cc1nc2c(c[n+]1C)CN1C(=O)N([C@H]3O[C@@H](CO)[C@H](O)[C@@H]3O)C=CC1=N2"
  GROUP LABEL: "class 0"
- MOLECULE: "Cc1cnc(NC(=O)C2=C([O-])c3ccccc3S(=O)(=O)N2C)s1"
  GROUP LABEL: "class 0"
- MOLECULE: "CCCCCCC(CCCCCC)N1C(=O)c2cccc3c(-c4cc(OC)c(OC)c(OC)c4)ccc(c23)C1=O"
  GROUP LABEL: "class 0"
- MOLECULE: "CC1=C(C(C)(C)C)C(C)=[N+]2C1=C(C)c1c(C)c(C(C)(C)C)c(C)n1[B-]2(F)F"
  GROUP LABEL: "class 1"
- MOLECULE: "COCCOc1cc(C=O)c(OCCOC)cc1C=O"
  GROUP LABEL: "class 0"
- MOLECULE: "COC(=O)C(Cc1ccc2oc(-c3ccc(N(C)C)cc3)nc2c1)NC(=O)OC(C)(C)C (centres undefined)"
  GROUP LABEL: "class 1"
- MOLECULE: "O=C(O)c1cc2c(ccc3ccccc32)oc1=O"
  GROUP LABEL: "class 1"
- MOLECULE: "COC(=O)C(Cc1ccc2oc(-c3ccc(N(C)c4ccccc4)cc3)nc2c1)NC(=O)OC(C)(C)C (centres undefined)"
  GROUP LABEL: "class 0"
- MOLECULE: "CCNc1ccc2c(C(F)(F)F)cc(=O)oc2c1"
  GROUP LABEL: "class 1"
- MOLECULE: "CN1C(C(=O)Nc2ccccn2)=C(O)c2sccc2S1(=O)=O"
  GROUP LABEL: "class 0"
- MOLECULE: "Cc1ccccc1/C(C#N)=C/c1ccc(N(C)C)cc1"
  GROUP LABEL: "class 0"
- MOLECULE: "COc1ccc(C2=C3C(C)=CC(C)=[N+]3[B-](F)(F)n3c(/C=C/c4ccc(N(C)C)cc4)cc(C)c32)cc1"
  GROUP LABEL: "class 1"
- MOLECULE: "CC(C)(C)c1ccc2oc(-c3ccc(-c4nc5cc(C(C)(C)C)ccc5o4)s3)nc2c1"
  GROUP LABEL: "class 1"
